pIC50: −log10 of the molar value.
Parameter 'readout' = pIC50; parameter 'system' = UniProt B4URF0.

Compound: O=C(O)[C@@H]1CSC(c2ccco2)N1C(=O)CCl (mixture of isomers)
Target: UniProt B4URF0
pIC50: 4.89

Compound: COc1cccc(C2N[C@H](C(=O)O)CS2)c1O (mixture of isomers)
Target: UniProt B4URF0
pIC50: 4.91

Compound: N#Cc1ccc(C2SC[C@@H](C(=O)O)N2C(=O)CCl)cc1 (mixture of isomers)
Target: UniProt B4URF0
pIC50: 5.06

Values were extracted from ChEMBL document CHEMBL1765019.
